B1: TPD52L2 (parent)
chain: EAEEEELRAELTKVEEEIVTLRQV

- Variants of: B1
- experiment-notes: protein stability index of a GFP-peptide fusion (GPS, HEK-293T) (PSI 1-6); higher = more stable;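 also: lentivirally expressed fusions sorted by FACS into six bins by GFP to DsRed ratio, PSI derived from sequencing read proportions per bin multiplied by bin number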
- condition: c terminus: a fixed tail appended
# binarize protein stability index: threshold 5 inclusive, high side Fulfilled, low side Not fulfilled

E17K; Not fulfilled
E5P; Not fulfilled
E16T; Not fulfilled
I18Q; Fulfilled
A2K; Not fulfilled

## Input State whether the measured protein stability index reaches 5, counting equality as reaching it, for V19C
## Output Not fulfilled

## Input State whether the measured protein stability index reaches 5, counting equality as reaching it, for R8T
## Output Fulfilled

## Input State whether the measured protein stability index reaches 5, counting equality as reaching it, for L21I
## Output Not fulfilled

## Input State whether the measured protein stability index reaches 5, counting equality as reaching it, for V24F
## Output Not fulfilled

## Input State whether the measured protein stability index reaches 5, counting equality as reaching it, for E16K
## Output Not fulfilled

## Input State whether the measured protein stability index reaches 5, counting equality as reaching it, for V24G
## Output Not fulfilled

## Input State whether the measured protein stability index reaches 5, counting equality as reaching it, for K13Q
## Output Not fulfilled

## Input State whether the measured protein stability index reaches 5, counting equality as reaching it, for L11G
## Output Fulfilled

## Input State whether the measured protein stability index reaches 5, counting equality as reaching it, for E17R
## Output Not fulfilled
